# Procedure summary: Percent bioavailability after intravenous dose of 1 mg/kg
# Format: ADME, organism-based
# Conditions: rat, in vivo
Assay readout: bioavailability (%)
# value in %; strip the unit string

Recorded bioavailability of O=C(Nc1ccccc1)Nc1ccc(C[C@@H](CO)NC[C@H](O)COc2ccccc2)cc1 , please.
1.1

* * *

# Procedure summary: Total clearance rate after intravenous dose of 0.32 mg/kg
# Format: ADME, organism-based, Canis lupus familiaris
# Design: dose 0.32 mg/kg, route intravenous
# Conditions: dog, in vivo, read-out: CLtot
Assay readout: clearance (mL/min/kg)
# value in mL/min/kg; strip the unit string

Recorded clearance of O=C(Nc1ccccc1)Nc1ccc(C[C@@H](CO)NC[C@H](O)COc2ccccc2)cc1 , please.
24.2

* * *

# System tested: Beta-3 adrenergic receptor (Homo sapiens)
# Sequence (P13945 whole entry): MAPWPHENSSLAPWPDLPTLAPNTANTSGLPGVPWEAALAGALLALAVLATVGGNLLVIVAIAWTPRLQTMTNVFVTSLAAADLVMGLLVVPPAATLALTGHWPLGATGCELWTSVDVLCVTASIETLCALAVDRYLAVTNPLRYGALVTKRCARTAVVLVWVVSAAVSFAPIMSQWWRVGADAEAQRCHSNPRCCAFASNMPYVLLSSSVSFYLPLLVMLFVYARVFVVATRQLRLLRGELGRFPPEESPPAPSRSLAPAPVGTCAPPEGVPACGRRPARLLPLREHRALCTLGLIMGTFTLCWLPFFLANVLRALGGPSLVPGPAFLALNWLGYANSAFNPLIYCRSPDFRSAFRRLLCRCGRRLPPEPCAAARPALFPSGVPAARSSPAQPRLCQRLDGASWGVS
# Procedure summary: Agonistic activity was assessed by measuring cAMP accumulation in CHO cell lines expressing cloned human Beta-3 adrenergic receptor
Assay readout: EC50 (nM)
# value in nM; strip the unit string

Below are worked cases with known answers.
Smiles entry: O=C(Nc1ccccc1)Nc1ccc(C[C@@H](CO)NC[C@H](O)COc2cccc3[nH]c4ccccc4c23)cc1
System tested: Beta-3 adrenergic receptor (Homo sapiens)
Units text: nM
EC50: 22
--
Smiles entry: COc1cccc(NC(=O)Nc2ccc(C[C@@H](CO)NC[C@H](O)COc3ccccc3)cc2)c1
System tested: Beta-3 adrenergic receptor (Homo sapiens)
Units text: nM
EC50: 0.8

In the following, a different compound is considered.
Recorded EC50 of CC(C)NC(=O)Nc1ccc(C[C@@H](CO)NC[C@H](O)COc2ccccc2)cc1 , please.
4.9

* * *

# Procedure summary: Half life of compound after intravenous dose of 1 mg/kg
# Format: ADME, organism-based
# Design: dose 1 mg/kg, route intravenous
# Conditions: rat, in vivo
Assay readout: T1/2 (h)
# value in h; strip the unit string

Recorded T1/2 of O=C(Nc1ccccc1)Nc1ccc(C[C@@H](CO)NC[C@H](O)COc2ccccc2)cc1 , please.
1.3

* * *

# System tested: Beta-2 adrenergic receptor (Homo sapiens)
# Sequence (P07550 whole entry): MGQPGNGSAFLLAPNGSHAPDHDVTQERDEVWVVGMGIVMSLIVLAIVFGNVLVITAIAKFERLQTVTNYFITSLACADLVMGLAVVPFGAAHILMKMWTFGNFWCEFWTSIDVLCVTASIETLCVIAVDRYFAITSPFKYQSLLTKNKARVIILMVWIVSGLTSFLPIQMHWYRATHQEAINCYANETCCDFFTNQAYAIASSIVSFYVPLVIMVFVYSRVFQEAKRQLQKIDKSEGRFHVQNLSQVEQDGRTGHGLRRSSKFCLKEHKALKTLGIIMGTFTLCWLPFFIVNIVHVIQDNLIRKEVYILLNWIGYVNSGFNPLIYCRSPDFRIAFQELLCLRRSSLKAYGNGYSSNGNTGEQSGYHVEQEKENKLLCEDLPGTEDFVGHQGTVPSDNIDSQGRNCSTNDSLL
# Procedure summary: Agonistic activity was assessed by measuring cAMP accumulation in CHO cell lines expressing cloned human Beta-2 adrenergic receptor
pEC50: −log10 of the molar value.
Assay readout: pEC50

Recorded pEC50 of O=C(Nc1ccccc1)Nc1ccc(C[C@@H](CO)NC[C@H](O)COc2ccccc2)cc1 , please.
< 7.00

* * *

# System tested: Beta-3 adrenergic receptor (Homo sapiens)
# Procedure summary: Agonistic activity was assessed by measuring cAMP accumulation in CHO cell lines expressing cloned human Beta-3 adrenergic receptor
Assay readout: EC50 (nM)
# value in nM; strip the unit string

Below are worked cases with known answers.
Smiles entry: O=C(Nc1ccc(C[C@@H](CO)NC[C@H](O)COc2ccccc2)cc1)Nc1cccc([N+](=O)[O-])c1
EC50 / nM: 1
//
Smiles entry: O=C(Nc1ccccc1)Nc1ccc(C[C@@H](CO)NC[C@H](O)c2cccc(Cl)c2)cc1
EC50 / nM: 74
//
Smiles entry: CCCNC(=O)Nc1ccc(C[C@@H](CO)NC[C@H](O)COc2ccccc2)cc1
EC50 / nM: 8.3
//
Smiles entry: O=C(Nc1ccccc1)Nc1ccc(CCNC[C@H](O)COc2ccccc2)cc1
EC50 / nM: 1.6

Recorded EC50 of O=C(Nc1ccc(C[C@@H](CO)NC[C@H](O)COc2ccccc2)cc1)Nc1cccc(C(=O)O)c1 , please.
1.5

Try COc1ccc(NC(=O)Nc2ccc(C[C@@H](CO)NC[C@H](O)COc3ccccc3)cc2)cc1 next.
2.5

Try O=C(Nc1ccccc1)Nc1ccc(C[C@@H](CO)NC[C@H](O)COc2ccccc2)cc1 next.
0.5

Try COc1ccccc1NC(=O)Nc1ccc(C[C@@H](CO)NC[C@H](O)COc2ccccc2)cc1 next.
1.1

Try O=C(Nc1ccc(C[C@@H](CO)NC[C@H](O)COc2ccccc2)cc1)NC1CCCCC1 next.
2.1

* * *

# Procedure summary: Percent bioavailability after intravenous dose of 0.32 mg/kg
# Assay type: ADME, organism-based, Canis lupus familiaris
# Conditions: dog, in vivo
Assay readout: bioavailability (%)
# value in %; strip the unit string

Recorded bioavailability of O=C(Nc1ccccc1)Nc1ccc(C[C@@H](CO)NC[C@H](O)COc2ccccc2)cc1 , please.
20.3

* * *

# Procedure summary: Maximum plasma concentration after orally administered dose of 0.32 mg/kg
# Format: ADME, organism-based, Canis lupus familiaris
# Parameters: dose 0.32 mg/kg, route oral
# Conditions: dog, po
Assay readout: Cmax (ng/mL)
# value in ng/mL; strip the unit string

Recorded Cmax of O=C(Nc1ccccc1)Nc1ccc(C[C@@H](CO)NC[C@H](O)COc2ccccc2)cc1 , please.
52.6

* * *

# Procedure summary: Half life of compound after intravenous dose of 0.32 mg/kg
# Assay type: ADME, organism-based, Canis lupus familiaris
# Set-up: dose 0.32 mg/kg, route intravenous
# Conditions: dog, in vivo
Assay readout: half-life (h)
# value in h; strip the unit string

Recorded half-life of O=C(Nc1ccccc1)Nc1ccc(C[C@@H](CO)NC[C@H](O)COc2ccccc2)cc1 , please.
8.1

* * *

# Procedure summary: Total clearance rate after intravenous dose of 1 mg/kg
# Format: ADME, organism-based
# Design: dose 1 mg/kg, route intravenous
# Conditions: rat, in vivo, read-out: CLtot
Assay readout: clearance (mL/min/kg)
# value in mL/min/kg; strip the unit string

Recorded clearance of O=C(Nc1ccccc1)Nc1ccc(C[C@@H](CO)NC[C@H](O)COc2ccccc2)cc1 , please.
142

* * *

# Procedure summary: Maximum plasma concentration after orally administered dose of 3.2 mg/kg
# Format: ADME, organism-based
# Design: dose 3.2 mg/kg, route oral
# Conditions: rat, po
Assay readout: Cmax (ng/mL)
# value in ng/mL; strip the unit string

Recorded Cmax of O=C(Nc1ccccc1)Nc1ccc(C[C@@H](CO)NC[C@H](O)COc2ccccc2)cc1 , please.
4.2

* * *

# System tested: UniProtKB P08588
# Sequence (P08588 whole entry): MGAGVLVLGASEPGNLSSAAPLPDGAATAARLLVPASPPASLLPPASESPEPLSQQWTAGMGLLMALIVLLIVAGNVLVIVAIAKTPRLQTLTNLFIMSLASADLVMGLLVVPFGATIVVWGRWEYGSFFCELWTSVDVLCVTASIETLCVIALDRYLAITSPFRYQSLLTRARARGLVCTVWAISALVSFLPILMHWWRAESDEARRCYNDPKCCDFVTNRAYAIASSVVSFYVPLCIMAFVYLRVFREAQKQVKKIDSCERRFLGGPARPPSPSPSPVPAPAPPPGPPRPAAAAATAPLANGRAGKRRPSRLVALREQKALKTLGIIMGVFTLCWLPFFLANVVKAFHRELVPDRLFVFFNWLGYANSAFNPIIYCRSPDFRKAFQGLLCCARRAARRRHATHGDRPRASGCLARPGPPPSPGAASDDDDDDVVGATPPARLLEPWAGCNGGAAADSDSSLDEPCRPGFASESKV
pEC50: −log10 of the molar value.
Assign class by pEC50: not lower than 8 means class 1; lower than 8 means class 0.

Answered cases to consult:
Smiles entry: O=C(Nc1ccccc1)Nc1ccc(CCNC[C@H](O)COc2ccccc2)cc1
System tested: UniProtKB P08588
Cat: class 1
--
Smiles entry: O=C(Nc1ccccc1)Nc1ccc(C[C@@H](CO)NC[C@H](O)COc2ccccc2)cc1
System tested: UniProtKB P08588
Cat: class 0
--
Smiles entry: CCCNC(=O)Nc1ccc(C[C@@H](CO)NC[C@H](O)COc2ccccc2)cc1
System tested: UniProtKB P08588
Cat: class 0

Quick check: does CC(C)NC(=O)Nc1ccc(C[C@@H](CO)NC[C@H](O)COc2ccccc2)cc1 have pEC50 greater than or equal to 8?
class 0

Try O=C(Nc1ccc(C[C@@H](CO)NC[C@H](O)COc2ccccc2)cc1)Nc1cccc(C(=O)O)c1 next.
class 1

Try COc1cccc(NC(=O)Nc2ccc(C[C@@H](CO)NC[C@H](O)COc3ccccc3)cc2)c1 next.
class 1

Try COc1ccc(NC(=O)Nc2ccc(C[C@@H](CO)NC[C@H](O)COc3ccccc3)cc2)cc1 next.
class 1

Try O=C(Nc1ccc(C[C@@H](CO)NC[C@H](O)COc2ccccc2)cc1)Nc1cccc([N+](=O)[O-])c1 next.
class 1
